- assayed-target: AQ STING (G230A-R293Q) (Homo sapiens, UniProt Q86WV6, G230A/H232R/R293Q)
- Construct: truncated human WT STING or AQ STING (amino acid residues 140-343) with N-terminal 8×His and SUMO tag; 8xHis-SUMO (N, cleaved yes); made in house; host or cells: E. coli Rosetta-gami B (DE3)
- Sequence (Q86WV6 140-343 G230A/H232R/R293Q): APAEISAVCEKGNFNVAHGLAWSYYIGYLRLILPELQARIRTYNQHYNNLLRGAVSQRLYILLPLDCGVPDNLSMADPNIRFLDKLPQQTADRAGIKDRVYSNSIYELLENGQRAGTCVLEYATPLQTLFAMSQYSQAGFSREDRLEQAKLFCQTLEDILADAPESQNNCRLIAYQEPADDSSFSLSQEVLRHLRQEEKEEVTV
- assay-name: Differential Scanning Fluorimetry (DSF) with AQ STING
- Format: binding
- run-conditions: thermal shift vs apoprotein; truncated human AQ STING 0.1 mg/ml; 150 μM CDN
value-type: DSF ΔTm AQ STING (°C)

(a) Nc1ncnc2c1ncn2[C@@H]1O[C@@H]2COP(=O)(O)O[C@H]3[C@H](O)[C@@H](COCP(=O)(O)O[C@@H]1[C@@H]2O)O[C@H]3n1cnc2c(N)ncnc21 [Compound 15]
(b) Nc1ncnc2c1ncn2[C@@H]1O[C@@H]2OCP(=O)(O)O[C@@H]3[C@H](O)[C@@H](OCP(=O)(O)O[C@@H]1[C@@H]2O)O[C@H]3n1cnc2c(N)ncnc21 [Compound 11]
(c) Nc1ncnc2c1ncn2[C@@H]1O[C@@H]2OCP(=O)(O)O[C@@H]3[C@H](O)[C@@H](COP(=O)(O)O[C@@H]1[C@@H]2O)O[C@H]3n1cnc2c(N)ncnc21 [Compound 14]
INPUT: Hey, quick one: sort these by DSF ΔTm AQ STING, low to high? Form field (ranking): labels in requested order.
OUTPUT: a, b, c
(a: 5.5 °C, b: 7.9 °C, c: 20.8 °C)

* * *

- assayed-target: WT STING (Homo sapiens, UniProt Q86WV6, H232R)
- Sequence (Q86WV6 whole entry H232R): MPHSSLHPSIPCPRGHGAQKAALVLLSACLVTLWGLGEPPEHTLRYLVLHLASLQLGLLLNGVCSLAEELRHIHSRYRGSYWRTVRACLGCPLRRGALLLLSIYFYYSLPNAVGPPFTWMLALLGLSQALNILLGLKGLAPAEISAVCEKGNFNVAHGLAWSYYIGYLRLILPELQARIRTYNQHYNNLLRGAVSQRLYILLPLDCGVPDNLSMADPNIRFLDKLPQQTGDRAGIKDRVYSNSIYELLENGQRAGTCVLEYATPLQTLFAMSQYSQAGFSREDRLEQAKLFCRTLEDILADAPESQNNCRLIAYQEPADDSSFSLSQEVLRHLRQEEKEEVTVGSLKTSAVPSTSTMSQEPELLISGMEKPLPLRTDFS
- assay-name: Digitonin assay using 293T wtSTING-FL reporter cells
- run-conditions: 293T wtSTING-FL cells, ISRE firefly luciferase reporter; 30 min in Digitonin buffer, then 5 hours; 8-point dose-response
- Excerpt: ISRE Reporter Plasmid (pGL64.27-4×ISRE) Two complementary oligonucleotides of the sequence […] […] The oligonucleotides were mixed in equal molar amounts, hybridized, and cleaved by restriction endonucleases HindIII (cat. #. R0104S, NEB, Ipswich, USA) and BglII (cat. #R0144S, NEB, Ipswich, USA). Ultimately, they were ligated into plasmid pGL4.27 (cat. #E6651, Promega, Madison, USA) linearized with the same enzymes. […]
value-type: EC50 (µM)

(P) Nc1ncnc2c1ncn2[C@@H]1O[C@@H]2OCP(=O)(O)O[C@@H]3[C@H](O)[C@@H](COP(=O)(O)O[C@@H]1[C@@H]2O)O[C@H]3n1cnc2c(N)ncnc21
(Q) Nc1ncnc2c1ncn2[C@@H]1O[C@@H]2COP(=O)(O)O[C@@H]3[C@H](O)[C@@H](COCP(=O)(O)O[C@@H]1[C@@H]2O)O[C@H]3n1cnc2c(N)ncnc21
(R) Nc1ncnc2c1ncn2[C@@H]1O[C@@H]2COP(=O)(O)O[C@H]3[C@H](O)[C@@H](COCP(=O)(O)O[C@@H]1[C@@H]2O)O[C@H]3n1cnc2c(N)ncnc21
(S) Nc1ncnc2c1ncn2[C@@H]1O[C@@H]2OCP(=O)(O)O[C@@H]3[C@H](O)[C@@H](OCP(=O)(O)O[C@@H]1[C@@H]2O)O[C@H]3n1cnc2c(N)ncnc21
INPUT: # rank_down: sort by EC50, max first Put the labels in the requested order and list them out.
OUTPUT: R, Q, S, P

Reference for the values: patent US20190185509A1
